Target: human FXR (NR1H4) (Homo sapiens, UniProt Q96RI1)
Construct: host or cells: CHO (Chinese hamster ovary) reporter cells
Sequence (Q96RI1 1-486): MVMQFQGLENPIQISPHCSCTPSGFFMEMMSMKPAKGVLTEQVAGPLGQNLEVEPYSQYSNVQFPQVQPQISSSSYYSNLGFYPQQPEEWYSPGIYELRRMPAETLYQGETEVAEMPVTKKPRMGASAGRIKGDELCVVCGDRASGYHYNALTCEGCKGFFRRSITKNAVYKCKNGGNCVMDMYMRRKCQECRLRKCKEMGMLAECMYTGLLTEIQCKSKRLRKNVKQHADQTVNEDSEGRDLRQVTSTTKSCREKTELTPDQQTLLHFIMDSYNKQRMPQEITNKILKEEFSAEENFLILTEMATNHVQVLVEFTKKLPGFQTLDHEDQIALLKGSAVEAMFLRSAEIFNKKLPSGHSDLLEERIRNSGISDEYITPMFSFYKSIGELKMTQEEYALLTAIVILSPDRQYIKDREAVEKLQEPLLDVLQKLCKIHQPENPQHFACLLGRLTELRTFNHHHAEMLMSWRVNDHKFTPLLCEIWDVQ
Experiment: Human FXR (NR1H4) Assay: Gal4 promoter driven luciferase reporter transactivation in CHO cells (Indigo Bioscience kit IB00601); also: efficacy normalized to CDCA set as 100%
Type: cell-based
Conditions: CHO; read-out: Efficacy (%)
Method: Human FXR (NR1H4) Assay Determination of a ligand mediated Gal4 promoter driven transactivation to quantify ligand binding mediated activation of FXR. […] The principle application of this reporter assay system is to quantify functional activity of human FXR. […] Luminescence intensity of the reaction is quantified using a plate-reading luminometer, Envision. […] Cells were incubated for additional 22 hours before luciferase activities were measured. […] Read time may be 0.5 second (500 mSec) per well.
readout.name: Emax (%)
Please respond with the number in % and leave the unit unwritten.

Below are worked cases with known answers.
| molecule | system | Emax (%) |
| --- | --- | --- |
| O=C(NS(=O)(=O)C1CC1)c1cc(F)c2nc(N3CCC(NCc4c(-c5c(Cl)cccc5Cl)noc4C4CC4)CC3)sc2c1 [Example 400-9] | human FXR (NR1H4) (Homo sapiens, UniProt Q96RI1) | 37.5 |
| COC(=O)c1cc(F)c2nc(N3CCC(NCc4c(-c5ccccc5OC(F)(F)F)noc4C4CC4)CC3)sc2c1 [Example 641] | human FXR (NR1H4) (Homo sapiens, UniProt Q96RI1) | 40 |
| COC(=O)c1cc(C2CC2)c2nc(N3C4CCC3CC(NCc3c(-c5c(Cl)cccc5Cl)noc3C3CC3)C4)sc2c1 (stereo not shown) [Example 200-29] | human FXR (NR1H4) (Homo sapiens, UniProt Q96RI1) | 94 |
| CC1(S(=O)(=O)NC(=O)c2cc3sc(N4C5CCC4CC(NCc4c(-c6c(Cl)cccc6Cl)noc4C4CC4)C5)nc3c3ccccc23)CC1 (stereo not shown) [Example 400-33] | human FXR (NR1H4) (Homo sapiens, UniProt Q96RI1) | 91 |
| Cc1cc2nc(N3C4CCC3CC(NCc3c(-c5c(Cl)cccc5Cl)noc3C3CC3)C4)sc2cc1C(=O)O (stereo not shown) [Example 194] | human FXR (NR1H4) (Homo sapiens, UniProt Q96RI1) | 81 |
| CC1(S(=O)(=O)NC(=O)c2cc(F)c3nc(N4C5CCC4CC(NCc4c(-c6c(Cl)cccc6Cl)noc4C4CC4)C5)sc3c2)CC1 (stereo not shown) [Example 295] | human FXR (NR1H4) (Homo sapiens, UniProt Q96RI1) | 152 |
| COC(=O)c1ccc2nc(N3C4CCC3CC(N(C)Cc3c(-c5c(Cl)cccc5Cl)noc3C3CC3)C4)sc2c1 (stereo not shown) [Example 179] | human FXR (NR1H4) (Homo sapiens, UniProt Q96RI1) | 148 |
| O=C(NS(=O)(=O)C1CC1)c1cnc2nc(N3C4CCC3CC(NCc3c(-c5ccccc5OC(F)(F)F)noc3C3CC3)C4)sc2n1 (stereo not shown) [Example 695] | human FXR (NR1H4) (Homo sapiens, UniProt Q96RI1) | 75 |

Inquiry: What value of Emax has been recorded for this entry: CC1(S(=O)(=O)NC(=O)c2ccc3nc(N4CCC(NCc5c(-c6c(Cl)cccc6Cl)noc5C5CC5)CC4)sc3c2)CC1 [Example 305]
Reply text: 139

Inquiry: Fill blank: measured Emax of the molecule CC(C)Oc1cc(C(=O)NS(=O)(=O)C2(C)CC2)cc2sc(N3C4CCC3CC(NCc3c(-c5c(F)cccc5F)noc3C3CC3)C4)nc12 (stereo not shown) [Example 1428] is ____.
Reply text: 86

Inquiry: What does the data say about its Emax? Entry: CC(C)(C)S(=O)(=O)NC(=O)c1ccc2nc(N3C4CCC3CC(NCc3c(-c5c(Cl)cccc5Cl)noc3C3CC3)C4)sc2c1 (stereo not shown) [Example 240]
Reply text: 245

Inquiry: Item CN(C)S(=O)(=O)NC(=O)c1ccc2nc(N3CCC(NCc4c(-c5c(Cl)cccc5Cl)noc4C4CC4)CC3)sc2c1 [Example 282] has what recorded Emax?
Reply text: 142

Inquiry: Any idea what its Emax is? The molecule is CC(C)Oc1cc(C(=O)NS(=O)(=O)C2(C)CC2)cc2sc(N3CCC(NCc4c(-c5c(Cl)cccc5Cl)noc4C4CC4)CC3)nc12 [Example 400-4]
Reply text: 97.5

Source of measurements: patent US10450306B2
